target: T1, human BLyS (full length, arginine 132 mutated to histidine) on CHO-K1 cells (human, UniProt Q9Y275 1-285); test: flow cytometry (FACS) on CHO-K1 hBLyS cells, Alexa 488 secondary antibody
T1 construct: also called hBLyS; CHO-K1 hBLyS
T1 sequence (Q9Y275 other isoform, or with tags, fused parts or gaps limits assumed, change not shown): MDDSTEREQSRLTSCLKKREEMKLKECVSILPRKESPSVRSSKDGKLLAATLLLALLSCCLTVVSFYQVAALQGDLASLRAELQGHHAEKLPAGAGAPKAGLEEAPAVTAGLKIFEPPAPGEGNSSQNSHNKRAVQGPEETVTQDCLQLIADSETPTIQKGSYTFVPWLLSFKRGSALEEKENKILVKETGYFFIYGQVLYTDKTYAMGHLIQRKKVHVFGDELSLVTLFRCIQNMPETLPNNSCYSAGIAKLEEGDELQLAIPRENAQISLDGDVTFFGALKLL
measurementKind: EC50 (read off the curve)

Here's what some known entries look like.
INSERT INTO measurements (binder, result) VALUES
  ('93C6F10D3 (antibody, V domains shown, Mouse hybridoma antibody purified on Protein G) VH: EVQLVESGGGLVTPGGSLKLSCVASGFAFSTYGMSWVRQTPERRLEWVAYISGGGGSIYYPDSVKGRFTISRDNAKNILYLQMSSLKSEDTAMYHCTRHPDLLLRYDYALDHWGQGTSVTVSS VL: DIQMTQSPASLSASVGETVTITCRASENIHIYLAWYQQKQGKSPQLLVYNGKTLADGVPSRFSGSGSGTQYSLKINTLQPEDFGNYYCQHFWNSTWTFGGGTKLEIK', '~0.1 nM'),
  ('97A3C2H4 (antibody, V domains shown, Mouse hybridoma antibody purified on Protein G) VH: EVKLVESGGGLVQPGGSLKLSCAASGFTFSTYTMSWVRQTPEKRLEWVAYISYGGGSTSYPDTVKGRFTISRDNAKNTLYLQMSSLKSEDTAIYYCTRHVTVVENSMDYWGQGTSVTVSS VL: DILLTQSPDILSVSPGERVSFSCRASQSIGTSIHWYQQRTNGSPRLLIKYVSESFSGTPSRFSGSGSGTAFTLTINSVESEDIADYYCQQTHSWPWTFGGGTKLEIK', '~0.3 nM'),
  ('2-1G11 (antibody, human IgG1, V domains shown) VH: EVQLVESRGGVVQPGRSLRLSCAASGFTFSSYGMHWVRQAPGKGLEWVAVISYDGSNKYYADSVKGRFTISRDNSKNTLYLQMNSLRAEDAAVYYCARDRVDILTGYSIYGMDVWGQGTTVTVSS VL: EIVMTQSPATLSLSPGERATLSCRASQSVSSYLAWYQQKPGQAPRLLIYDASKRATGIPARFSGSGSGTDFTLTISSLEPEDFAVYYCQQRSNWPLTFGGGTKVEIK', '~0.09 nM'),
  ('97E7B3F2 (antibody, V domains shown, Mouse hybridoma antibody purified on Protein G) VH: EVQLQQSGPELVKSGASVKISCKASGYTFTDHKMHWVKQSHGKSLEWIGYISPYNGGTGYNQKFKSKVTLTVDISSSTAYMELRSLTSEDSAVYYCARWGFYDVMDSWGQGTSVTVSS VL: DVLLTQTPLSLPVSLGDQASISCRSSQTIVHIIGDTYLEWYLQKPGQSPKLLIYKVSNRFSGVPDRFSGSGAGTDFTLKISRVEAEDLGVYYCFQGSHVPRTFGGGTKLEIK', '~0.1 nM'),
  ('L1D12 (antibody, human IgG1, V domains shown, also called LID12) VH: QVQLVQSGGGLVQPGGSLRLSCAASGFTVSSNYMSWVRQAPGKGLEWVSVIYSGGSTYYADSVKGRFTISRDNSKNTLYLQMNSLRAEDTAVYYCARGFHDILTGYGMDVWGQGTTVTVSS VL: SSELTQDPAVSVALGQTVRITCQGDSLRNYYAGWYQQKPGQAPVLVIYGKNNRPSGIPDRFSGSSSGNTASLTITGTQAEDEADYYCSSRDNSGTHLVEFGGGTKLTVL', '~0.2 nM');

Request: Recorded EC50 (read off the curve) for 8E7D9C7F5 (antibody, V domains shown, Mouse hybridoma antibody purified on Protein G) VH: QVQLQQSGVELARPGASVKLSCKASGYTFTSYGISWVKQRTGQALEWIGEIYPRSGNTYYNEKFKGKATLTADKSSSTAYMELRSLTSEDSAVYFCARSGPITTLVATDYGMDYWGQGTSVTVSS VL: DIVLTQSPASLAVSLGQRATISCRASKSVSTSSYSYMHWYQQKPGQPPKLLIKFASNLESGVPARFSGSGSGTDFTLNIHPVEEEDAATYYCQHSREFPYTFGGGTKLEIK , please?
Result: ~0.1 nM

Request: Entry L9G7 (antibody, human IgG1, V domains shown) VH: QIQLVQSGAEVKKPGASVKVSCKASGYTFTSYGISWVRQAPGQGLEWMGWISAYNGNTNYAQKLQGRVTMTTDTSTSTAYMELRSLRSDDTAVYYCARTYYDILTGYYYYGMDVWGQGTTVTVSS VL: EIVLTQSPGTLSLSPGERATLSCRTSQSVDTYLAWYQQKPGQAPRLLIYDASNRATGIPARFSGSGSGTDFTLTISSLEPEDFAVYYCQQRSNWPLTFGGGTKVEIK has what EC50 (read off the curve)?
Result: ~0.3 nM

Request: Entry 89A2G5E7 (antibody, V domains shown, Mouse hybridoma antibody purified on Protein G) VH: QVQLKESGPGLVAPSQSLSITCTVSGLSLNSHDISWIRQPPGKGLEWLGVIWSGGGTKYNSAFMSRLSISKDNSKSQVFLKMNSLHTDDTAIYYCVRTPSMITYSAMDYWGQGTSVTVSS VL: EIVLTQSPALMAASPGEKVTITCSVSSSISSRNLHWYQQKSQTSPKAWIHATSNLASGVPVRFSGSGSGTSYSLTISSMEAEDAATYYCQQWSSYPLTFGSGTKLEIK has what EC50 (read off the curve)?
Result: ~0.7 nM

Request: Form field: reported EC50 (read off the curve) of 78C11D2D12 (antibody, V domains shown, Mouse hybridoma antibody purified on Protein G) VH: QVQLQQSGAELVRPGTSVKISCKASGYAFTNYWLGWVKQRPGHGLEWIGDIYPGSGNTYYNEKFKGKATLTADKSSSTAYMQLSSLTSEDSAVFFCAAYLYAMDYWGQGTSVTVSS VL: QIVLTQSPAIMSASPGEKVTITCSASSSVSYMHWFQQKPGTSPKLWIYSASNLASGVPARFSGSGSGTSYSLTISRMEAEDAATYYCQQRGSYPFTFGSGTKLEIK
Result: ~0.2 nM

Request: What EC50 (read off the curve) value was documented for this binder, 20D1B6E9E5 (antibody, V domains shown, Mouse hybridoma antibody purified on Protein G) VH: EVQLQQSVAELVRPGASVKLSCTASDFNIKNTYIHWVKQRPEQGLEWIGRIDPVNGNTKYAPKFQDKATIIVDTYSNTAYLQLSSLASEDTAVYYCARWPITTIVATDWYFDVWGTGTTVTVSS VL: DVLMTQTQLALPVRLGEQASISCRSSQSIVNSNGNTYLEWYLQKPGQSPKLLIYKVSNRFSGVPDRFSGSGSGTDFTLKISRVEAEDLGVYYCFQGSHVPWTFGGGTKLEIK ?
Result: ~0.2 nM

Request: Any idea what EC50 (read off the curve) was measured for 111D10D6G3 (antibody, V domains shown, Mouse hybridoma antibody purified on Protein G) VH: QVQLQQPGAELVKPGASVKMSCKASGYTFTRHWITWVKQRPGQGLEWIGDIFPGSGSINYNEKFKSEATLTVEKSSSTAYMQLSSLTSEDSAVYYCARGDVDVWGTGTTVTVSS VL: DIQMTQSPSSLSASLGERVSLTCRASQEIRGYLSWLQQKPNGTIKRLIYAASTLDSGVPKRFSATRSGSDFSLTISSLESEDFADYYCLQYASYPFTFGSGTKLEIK ?
Result: ~0.1 nM
